Record form. Attribute: bone to blood ratio. Fill in for each entry.
# procedureDetails: In vivo biodistribution in mice
# Design: species or system normal CD-1 male mice
# measurementSetup: iv, 60 min
Numbers only.

The cases that follow already have their bone to blood ratio on record.
[[record]]
molecule = "C[C@H](NC(=O)CCc1ccc([O-])c(CN(CCN(CC(=O)[O-])Cc2cc(CCC(=O)NC(P(=O)(O)O)P(=O)(O)O)ccc2[O-])CC(=O)[O-])c1)C(=O)O.[68Ga+3] [[^68Ga]1d]"
endpoint = "bone to blood ratio"
recordedresult = 144

[[record]]
molecule = "O=C([O-])CN(CCN(CC(=O)[O-])Cc1cc(CCC(=O)NC(P(=O)(O)O)P(=O)(O)O)ccc1[O-])Cc1cc(CCC(=O)NCCNC(=O)CN2CCN(CC(=O)O)CCN(CC(=O)O)CCN(CC(=O)O)CC2)ccc1[O-].[68Ga+3] [[^68Ga]1h]"
endpoint = "bone to blood ratio"
recordedresult = 112

[[record]]
molecule = "O=C([O-])CN(CCN(CC(=O)[O-])Cc1cc(CCC(=O)NC(P(=O)(O)O)P(=O)(O)O)ccc1[O-])Cc1cc(CCC(=O)NC2C(O)OC(CO)C(O)C2O)ccc1[O-].[68Ga+3] (centres unmarked) [[^68Ga]1b]"
endpoint = "bone to blood ratio"
recordedresult = 50

[[record]]
molecule = "O=C([O-])CN(CCN(CC(=O)[O-])Cc1cc(CCC(=O)NC(P(=O)(O)O)P(=O)(O)O)ccc1[O-])Cc1cc(CCC(=O)NCC(=O)O)ccc1[O-].[68Ga+3] [[^68Ga]1c]"
endpoint = "bone to blood ratio"
recordedresult = 23


Alright, here's another molecule for you.
**Query** For the molecule O=C([O-])CN(CCN(CC(=O)[O-])Cc1cc(CCC(=O)NC(P(=O)(O)O)P(=O)(O)O)ccc1[O-])Cc1cc(CCC(=O)NC(P(=O)(O)O)P(=O)(O)O)ccc1[O-].[68Ga+3] [[^68Ga]2] , what bone to blood ratio is on record?
**Result** 42

###

# procedureDetails: In vivo biodistribution in mice
# Design: species or system normal CD-1 male mice
# measurementSetup: iv, 2 min post injection
Label rule, in plain words: Biodistribution: Liver of 3 % dose/g and up is fulfilled, under 3 % dose/g is not fulfilled.

See these solved cases before continuing.
[[record]]
compound = "[18F-].[Na+] [[^18F]NaF, reference compound]"
classlabel = "not fulfilled"

[[record]]
compound = "O=C([O-])CN(CCN(CC(=O)[O-])Cc1cc(CCC(=O)NC(P(=O)(O)O)P(=O)(O)O)ccc1[O-])Cc1cc(CCC(=O)NC2C(O)OC(CO)C(O)C2O)ccc1[O-].[68Ga+3] (stereo not drawn) [[^68Ga]1b]"
classlabel = "not fulfilled"

[[record]]
compound = "O=C([O-])CN(CCN(CC(=O)[O-])Cc1cc(CCC(=O)NC(P(=O)(O)O)P(=O)(O)O)ccc1[O-])Cc1cc(CCC(=O)O)ccc1[O-].[68Ga+3] [[^68Ga]1a]"
classlabel = "not fulfilled"

[[record]]
compound = "O=C([O-])CN(CCN(CC(=O)[O-])Cc1cc(CCC(=O)NC(P(=O)(O)O)P(=O)(O)O)ccc1[O-])Cc1cc(CCC(=O)NC(P(=O)(O)O)P(=O)(O)O)ccc1[O-].[68Ga+3] [[^68Ga]2]"
classlabel = "not fulfilled"

[[record]]
compound = "O=C([O-])CN(CCN(CC(=O)[O-])Cc1cc(CCC(=O)NC(P(=O)(O)O)P(=O)(O)O)ccc1[O-])Cc1cc(CCC(=O)NCC(=O)O)ccc1[O-].[68Ga+3] [[^68Ga]1c]"
classlabel = "fulfilled"


API: the following record is the query input.
**Query** # bool: Biodistribution: Liver of O=C([O-])CN(CCN(CC(=O)[O-])Cc1cc(CCC(=O)NC(P(=O)(O)O)P(=O)(O)O)ccc1[O-])Cc1cc(CCC(=O)NCCNC(=O)CN2CCN(CC(=O)O)CCN(CC(=O)O)CCN(CC(=O)O)CC2)ccc1[O-].[68Ga+3] [[^68Ga]1h] >= 3 % dose/g
**Result** not fulfilled

Every entry's value here was drawn from patent US10253052B2.
